- Measured Target: α-Adrenoceptor
- Experiment Summary: displacement of 3H-Yohimbine, α-adrenoceptor labelling
- Assay type: binding
- Assay Conditions: read-out: […] Ki, 3H-Yohimbine
Value Type: Ki (nM)

compound="NC1CCc2cc(O)c(O)cc2C1 (stereo not shown) [A-6,7-DTN]" quantitative_readout=560

---

- Measured Target: dopamine receptor (Rattus norvegicus, UniProt P61169)
- Construct: from tissue
- Sequence (P61169 whole entry): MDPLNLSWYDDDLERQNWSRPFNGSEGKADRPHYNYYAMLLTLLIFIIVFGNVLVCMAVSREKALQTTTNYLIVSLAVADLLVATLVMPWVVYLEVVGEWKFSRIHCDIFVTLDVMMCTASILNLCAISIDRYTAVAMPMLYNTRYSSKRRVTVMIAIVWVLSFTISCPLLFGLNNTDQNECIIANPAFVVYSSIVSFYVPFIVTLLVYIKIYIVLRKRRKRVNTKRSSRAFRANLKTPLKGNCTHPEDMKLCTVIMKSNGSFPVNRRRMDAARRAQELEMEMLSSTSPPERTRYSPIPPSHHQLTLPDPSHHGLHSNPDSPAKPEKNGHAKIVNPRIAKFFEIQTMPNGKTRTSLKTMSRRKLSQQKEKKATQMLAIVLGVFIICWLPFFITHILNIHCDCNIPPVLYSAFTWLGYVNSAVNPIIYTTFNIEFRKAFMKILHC
- Experiment Summary: displacement of 3H-Spiperone, dopamine receptor labelling
- Type: binding
Value Type: Ki (nM)

molecule="NC1CCc2cc(O)c(O)cc2C1 (stereo not shown) [A-6,7-DTN]" measured_target="dopamine receptor (Rattus norvegicus, UniProt P61169)" value_type=Ki scale_unit=nM quantitative_readout=130
